testTarget: PNCK Nano-luciferase fusion (Homo sapiens, UniProt Q6P2M8)
Construct: host or cells: HEK293
Sequence (Q6P2M8 whole entry, the tested form may be a part): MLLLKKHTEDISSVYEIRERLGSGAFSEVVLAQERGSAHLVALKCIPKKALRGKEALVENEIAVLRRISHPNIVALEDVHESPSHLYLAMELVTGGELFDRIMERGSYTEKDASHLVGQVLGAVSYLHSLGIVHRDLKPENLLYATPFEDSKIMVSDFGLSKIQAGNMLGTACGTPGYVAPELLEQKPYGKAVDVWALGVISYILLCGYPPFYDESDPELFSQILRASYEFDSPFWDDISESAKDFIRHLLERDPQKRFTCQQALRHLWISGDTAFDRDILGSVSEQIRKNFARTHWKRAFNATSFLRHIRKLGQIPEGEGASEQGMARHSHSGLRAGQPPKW
testName: NanoBRET Target Engagement Intracellular Kinase Assay, cell-based PNCK binding screen and dose response in HEK293 cells
particulars: compound 10uM; HEK293; K10 tracer 1uM; normalized to staurosporine and DMSO; read-out: Avg. Normalized % Inhibition, 10uM, Nanobret
# inhibition at 10 µM annotations
measurementName: inhibition at 10 µM (%)

1. CC(C)(CC(=O)Nc1ccc(Oc2ccnc3ccccc23)c(F)c1)C(=O)O [UM_026]
0
2. CC1CCc2c(sc(NC(=O)c3cccs3)c2C(N)=O)C1 (centres unmarked) [UM_255]
1.24
3. COc1cccc(-n2nnc3c(=O)n(CC(=O)N4CCCC4)cnc32)c1 [UM_230]
55.1
4. COc1ccc(CNC(=O)c2cc(C3CC3)[nH]n2)cc1C(=O)O [UM_019]
0
5. O=C(O)Cc1ccc(NS(=O)(=O)c2cccc(Cl)c2Cl)cc1 [UM_024]
0

Cited source for all entries: paper PMC10249896
